Attribution: patent US20200325187A1

- System tested: T1, LRP6 E1E2 protein (human, UniProt O75581 20-630, limits assumed)
- T1 construct: domain: E1E2
- T1 sequence (looked up): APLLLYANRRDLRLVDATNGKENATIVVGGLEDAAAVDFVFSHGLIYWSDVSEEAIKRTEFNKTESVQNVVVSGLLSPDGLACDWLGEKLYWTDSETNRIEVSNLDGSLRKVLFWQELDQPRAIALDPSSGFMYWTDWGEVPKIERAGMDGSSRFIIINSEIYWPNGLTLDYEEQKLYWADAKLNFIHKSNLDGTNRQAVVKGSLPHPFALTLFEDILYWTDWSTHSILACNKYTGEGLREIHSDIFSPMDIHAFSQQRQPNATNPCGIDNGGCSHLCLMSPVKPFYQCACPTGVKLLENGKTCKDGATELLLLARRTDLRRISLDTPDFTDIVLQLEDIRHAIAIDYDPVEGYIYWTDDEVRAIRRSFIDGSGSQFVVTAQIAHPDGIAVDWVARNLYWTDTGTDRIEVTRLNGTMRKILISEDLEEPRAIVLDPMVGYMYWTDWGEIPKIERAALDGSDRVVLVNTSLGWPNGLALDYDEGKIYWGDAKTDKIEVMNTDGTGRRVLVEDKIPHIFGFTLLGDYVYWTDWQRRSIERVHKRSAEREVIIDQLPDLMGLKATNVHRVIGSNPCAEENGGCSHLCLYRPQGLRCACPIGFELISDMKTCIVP
- Protocol text: spot phage ELISA; also: unit not given here
Exercise: state measured ELISA for each of the binders provided.

Query :: I'd like to know its ELISA. The binder in question is GCANRVKRTSCKQDSDCLAGCVCGPNGFCG (designed binder) [LRP6_CKP22]
Result :: 3.43

Query :: Another: GCSRNSIKCKQDSDCLAGCVCASGSSCG (designed binder) [LRP6_CKP16]
Result :: 3.36

Query :: Another: GCSNRVKVRACKQDSDCLAGCVCGPNGFCG (designed binder) [LRP6_CKP19]
Result :: 3.27

Query :: Another: GCRTNRVKGGCKQDSDCLAGCVCGPNGFCG (designed binder) [LRP6_CKP1]
Result :: 3.23
